Biological target: Substance-P receptor (Homo sapiens, UniProt P25103)
Sequence (P25103 whole entry): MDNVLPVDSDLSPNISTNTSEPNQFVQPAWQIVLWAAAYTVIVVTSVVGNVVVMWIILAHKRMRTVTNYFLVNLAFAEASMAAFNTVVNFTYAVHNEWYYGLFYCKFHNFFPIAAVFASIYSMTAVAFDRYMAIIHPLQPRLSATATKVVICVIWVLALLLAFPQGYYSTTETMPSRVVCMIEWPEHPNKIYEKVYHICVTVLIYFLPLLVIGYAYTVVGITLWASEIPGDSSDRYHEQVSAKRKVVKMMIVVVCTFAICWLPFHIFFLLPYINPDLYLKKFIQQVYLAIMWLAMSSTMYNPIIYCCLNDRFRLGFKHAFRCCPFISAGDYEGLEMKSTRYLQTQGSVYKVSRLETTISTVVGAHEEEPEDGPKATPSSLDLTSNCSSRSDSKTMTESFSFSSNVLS
Experiment: Displacement of [125I]-labeled substance P from human cloned NK1 receptor expressed in CHO cells
measuredEndpoint: pIC50
When answering, recall that pIC50 equals minus log10 of the concentration in mol/L, and write that number alone.

Worked examples, 3 molecules total:
O=S(=O)(c1ccccc1)C1CC2(c3ccccc3)NC1CCC2OCc1cc(C(F)(F)F)cc(C(F)(F)F)c1 (stereo not given); 8.55
Cn1nnc(C2CC3(c4ccccc4)NC2CCC3OCc2cc(C(F)(F)F)cc(C(F)(F)F)c2)n1 (stereo not given); 9.00
FC(F)(F)c1cc(COC2CCC3CCC2(c2ccccc2)N3)cc(C(F)(F)F)c1 (stereo not given); 8.52

Input line: What measured pIC50 goes with C[C@@H](OC1CCC2NC1(c1ccccc1)CC2c1nnn(C)n1)c1cc(C(F)(F)F)cc(C(F)(F)F)c1 (stereo not given in full) ?
Output line: 9.30

Input line: Again, but for C[C@@H](OC1CCC2CCC1(c1ccccc1)N2)c1cc(C(F)(F)F)cc(C(F)(F)F)c1 (stereo not given in full)
Output line: 8.38

Input line: Again, but for C[C@@H](OC1CCC2NC1(c1ccccc1)CC2S(=O)(=O)c1ccccc1)c1cc(C(F)(F)F)cc(C(F)(F)F)c1 (stereo not given in full)
Output line: 9.22

Input line: Again, but for Cn1nnc(C2(F)CC3(c4ccccc4)NC2CCC3OCc2cc(C(F)(F)F)cc(C(F)(F)F)c2)n1 (stereo not given)
Output line: 8.82

Input line: Again, but for C[C@H](OC1CCC2CCC1(c1ccccc1)N2)c1cc(C(F)(F)F)cc(C(F)(F)F)c1 (stereo not given in full)
Output line: 6.70

Input line: Again, but for C[C@@H](OC1CCC2NC1(c1ccccc1)CC2c1nnnn1C)c1cc(C(F)(F)F)cc(C(F)(F)F)c1 (stereo not given in full)
Output line: 8.92

Input line: Again, but for C[C@@H](OC1CCC2NC1(c1ccccc1)CC2(F)c1nnn(C)n1)c1cc(C(F)(F)F)cc(C(F)(F)F)c1 (stereo not given in full)
Output line: 9.40

====

Molecular target: Voltage-gated inwardly rectifying potassium channel KCNH2 (Homo sapiens, UniProt Q12809)
Sequence (Q12809 whole entry): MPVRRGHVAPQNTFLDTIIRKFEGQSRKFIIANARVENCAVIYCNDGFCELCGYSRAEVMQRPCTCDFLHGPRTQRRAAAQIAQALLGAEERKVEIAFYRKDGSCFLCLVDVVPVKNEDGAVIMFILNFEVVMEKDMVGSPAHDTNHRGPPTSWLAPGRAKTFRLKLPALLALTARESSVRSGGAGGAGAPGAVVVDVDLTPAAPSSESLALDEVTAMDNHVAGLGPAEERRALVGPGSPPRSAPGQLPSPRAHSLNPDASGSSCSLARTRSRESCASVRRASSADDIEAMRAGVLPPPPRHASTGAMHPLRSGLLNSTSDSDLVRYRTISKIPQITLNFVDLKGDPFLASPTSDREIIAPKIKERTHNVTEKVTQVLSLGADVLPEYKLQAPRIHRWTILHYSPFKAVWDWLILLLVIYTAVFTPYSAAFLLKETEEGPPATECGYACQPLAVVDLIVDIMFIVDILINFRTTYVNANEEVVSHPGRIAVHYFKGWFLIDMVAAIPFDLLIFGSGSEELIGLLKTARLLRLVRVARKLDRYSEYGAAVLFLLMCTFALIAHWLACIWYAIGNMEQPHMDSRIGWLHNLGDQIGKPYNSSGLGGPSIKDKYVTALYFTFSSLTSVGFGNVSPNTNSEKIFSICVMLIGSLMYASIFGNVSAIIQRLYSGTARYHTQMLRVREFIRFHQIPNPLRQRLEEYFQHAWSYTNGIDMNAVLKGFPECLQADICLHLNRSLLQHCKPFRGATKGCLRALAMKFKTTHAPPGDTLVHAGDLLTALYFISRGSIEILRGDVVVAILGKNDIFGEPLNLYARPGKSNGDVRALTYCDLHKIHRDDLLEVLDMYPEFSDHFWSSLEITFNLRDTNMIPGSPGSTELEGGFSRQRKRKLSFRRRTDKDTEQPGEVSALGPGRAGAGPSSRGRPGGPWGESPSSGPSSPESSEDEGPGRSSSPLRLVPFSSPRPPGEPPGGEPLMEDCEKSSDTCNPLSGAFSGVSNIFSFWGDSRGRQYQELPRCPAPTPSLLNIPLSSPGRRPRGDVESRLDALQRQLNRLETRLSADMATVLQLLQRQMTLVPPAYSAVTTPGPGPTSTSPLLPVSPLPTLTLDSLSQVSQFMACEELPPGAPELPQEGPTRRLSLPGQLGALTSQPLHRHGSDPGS
measuredEndpoint: pKi
When answering, recall that pKi equals minus log10 of the concentration in mol/L, and write that number alone.

O=S(=O)(c1ccccc1)C1CC2(c3ccccc3)NC1CCC2OCc1cc(C(F)(F)F)cc(C(F)(F)F)c1 (configuration not stated); 5.89
Cn1nnc(C2CC3(c4ccccc4)NC2CCC3OCc2cc(C(F)(F)F)cc(C(F)(F)F)c2)n1 (configuration not stated); 7.00

Input line: What measured pKi goes with C[C@@H](OC1CCC2NC1(c1ccccc1)CC2c1nnn(C)n1)c1cc(C(F)(F)F)cc(C(F)(F)F)c1 (some centres not stated) ?
Output line: 5.74

Input line: Again, but for C[C@@H](OC1CCC2NC1(c1ccccc1)CC2c1nnnn1C)c1cc(C(F)(F)F)cc(C(F)(F)F)c1 (some centres not stated)
Output line: 5.55

Input line: Again, but for FC(F)(F)c1cc(COC2CCC3CCC2(c2ccccc2)N3)cc(C(F)(F)F)c1 (configuration not stated)
Output line: 6.52
